Consider the following compounds; for each one, report its pEC50.
- Tested on: HCV genotype 3a NS5A chimeric replicon
- EXPERIMENT DESCRIPTION: Replicon assay against NS5A sequence of genotype 3a, intergenotypic chimera
- Assay type: cell-based
- MEASUREMENT CONTEXT: Hepatitis C virus, read-out: Genotype 3a
- Procedure: Assay 4: Replicon Assays Against NS5A Sequences of Other Genotypes Potencies of test compounds against NS5A sequences of other genotypes were determined by creating intergenotypic chimeras. […] These chimeric replicon plasmids were then linearized and in vitro transcribed to RNA. The RNA was used to transiently or stably transfect Huh-LUNET cells by electroporation, and the potencies of test compounds against the chimeras were determined as previously described.
pEC50: −log10 of the molar value.

For orientation, consider the following solved cases.
INSERT INTO results (compound_string, result) VALUES
  ('COC(=O)N[C@H](C(=O)N1C[C@@H](C)C[C@H]1c1nc(-c2ccc(-c3cc(Cl)c(C(=O)Nc4ccc(N5CCN(C(=O)C(C)(C)C)C[C@H]5C)nc4)cc3OC(F)(F)F)cc2)c[nH]1)C1CCOCC1', '8.00 to 9.00'),
  ('COC(=O)N[C@H](C(=O)N1C[C@@H](C)C[C@H]1c1nc(-c2ccc(-c3ccc(C(=O)Nc4ccc(N5CCN(C(=O)C(C)(C)C)C[C@H]5C)nc4)c(F)c3OC(F)(F)F)cc2)c[nH]1)C1CCOCC1', '9.00 to 10.00'),
  ('COC(=O)N[C@H](C(=O)N1CC2(C[C@H]1c1nc(-c3ccc(-c4ccc(NC(=O)c5ccc(N6CCN(C(=O)[C@H]7CC7(C)C)C[C@H]6C)nc5)cc4OC(F)(F)F)cc3)c[nH]1)OCCO2)C(C)C', '8.00 to 9.00'),
  ('COC(=O)N[C@H](C(=O)N1C[C@@H](C#N)C[C@H]1c1nc(-c2ccc(-c3cc(Cl)c(NC(=O)c4ccc(N5CCN(C(=O)OC(C)(C)C)C[C@H]5C)nc4)cc3OC(F)(F)F)cc2)c[nH]1)C(C)C', '6.00 to 8.00'),
  ('COC(=O)N[C@H](C(=O)N1C[C@@H](C)C[C@H]1c1nc(-c2ccc(-c3cc(F)c(NC(=O)c4ccc(N5CCN(C(=O)C(C)(C)C)C[C@H]5C)nc4)cc3OC(F)(F)F)cc2)c[nH]1)C(C)C', '8.00 to 9.00'),
  ('COC(=O)N[C@H](C(=O)N1C[C@@H](C)C[C@H]1c1nc(-c2ccc(-c3ccc(C(=O)Nc4ccc(N5CCN(C(=O)[C@H]6CC6(C)C)C[C@H]5C)nc4)cc3OC(F)(F)F)cc2)c[nH]1)C(C)C', '6.00 to 8.00'),
  ('COC(=O)N[C@H](C(=O)N1C[C@@H](C)C[C@H]1c1nc(-c2ccc(-c3cc(Cl)c(NC(=O)c4ccc(N5CCN(C(=O)C(C)(C)C)C[C@H]5C)nc4)cc3OC(F)(F)F)cc2)c[nH]1)C1CCOCC1', '9.00 to 10.00'),
  ('COC(=O)N[C@H](C(=O)N1C[C@@H](C)C[C@H]1c1nc(-c2ccc(-c3ccc(C(=O)Nc4ccc(N5C[C@H](C)N(C(=O)[C@H]6CC6(C)C)C[C@H]5C)nc4)cc3OC(F)(F)F)cc2)c[nH]1)C(C)C', '6.00 to 8.00'),
  ('COC(=O)N[C@H](C(=O)N1C[C@@H](C)C[C@H]1c1nc(-c2ccc(-c3ccc(C(=O)Nc4ccc(N5CCN(C(=O)C(C)(C)C)C[C@H]5C)nc4)cc3OC(F)(F)F)cc2)c(Cl)[nH]1)C(C)C', '8.00 to 9.00'),
  ('COC(=O)N[C@H](C(=O)N1C[C@@H](OC)C[C@H]1c1nc(-c2ccc(-c3cc(Cl)c(NC(=O)c4ccc(N5CCN(C(=O)C(C)(C)CO)C[C@H]5C)nc4)cc3OC(F)(F)F)cc2)c[nH]1)C1CCOCC1', '8.00 to 9.00');

Each compound below has a recorded value; state its pEC50.
1. COC(=O)N[C@H](C(=O)N1C[C@@H](OC)C[C@H]1c1nc(-c2ccc(-c3cc(Cl)c(NC(=O)c4ccc(N5CCN(C(=O)C(C)(C)C)C[C@H]5C)nc4)cc3OC(F)(F)F)cc2)c[nH]1)C(C)C
2. CNC(=O)N1C[C@@H](C)N(c2ccc(C(=O)Nc3cc(OC(F)(F)F)c(-c4ccc(-c5c[nH]c([C@@H]6C[C@H](C)CN6C(=O)[C@@H](NC(=O)OC)C(C)C)n5)cc4)cc3Cl)cn2)C[C@@H]1C
3. COC(=O)N[C@H](C(=O)N1C[C@@H](OC)C[C@H]1c1nc(-c2ccc(-c3cc(Cl)c(NC(=O)c4ccc(N5CCN(C(=O)C(C)(C)C)C[C@H]5C)nc4)cc3OC(F)(F)F)cc2)c[nH]1)C1CCOCC1

Data returned:
9.00 to 10.00
6.00 to 8.00
9.00 to 10.00

Each compound below has a recorded value; state its pEC50.
1. COC(=O)N[C@H](C(=O)N1C[C@@H](SC)C[C@H]1c1nc(-c2ccc(-c3ccc(C(=O)Nc4ccc(N5CCN(C(=O)[C@H]6CC6(C)C)C[C@H]5C)nc4)cc3OC(F)(F)F)cc2)c[nH]1)C(C)C
2. COC(=O)N[C@H](C(=O)N1C[C@@H](C)C[C@H]1c1nc(-c2ccc(-c3c(Cl)cc(C(=O)Nc4ccc(N5CCN(C(=O)C(C)(C)C)C[C@H]5C)nc4)cc3OC(F)(F)F)cc2)c[nH]1)C1CCOCC1
3. COC(=O)N[C@H](C(=O)N1C[C@@H](C)C[C@H]1c1nc(-c2ccc(-c3cc(Cl)c(NC(=O)c4ccc(N5CCN(C(=O)[C@H]6CC6(C)C)C[C@H]5C)nc4)cc3OC(F)(F)F)cc2)c[nH]1)C(C)C
4. COC(=O)N[C@H](C(=O)N1C[C@@H](C(N)=O)C[C@H]1c1nc(-c2ccc(-c3cc(Cl)c(NC(=O)c4ccc(N5CCN(C(=O)C(C)(C)C)C[C@H]5C)nc4)cc3OC(F)(F)F)cc2)c[nH]1)C(C)C
5. COC(=O)N[C@H](C(=O)N1C[C@@H](C)C[C@H]1c1nc(-c2ccc(-c3cc(Cl)c(NC(=O)c4ccc(N5CCN(C(=O)C(C)(C)C)C[C@H]5C)nc4)cc3OC(F)(F)F)cc2)c[nH]1)C(C)C

Data returned:
["6.00 to 8.00", "8.00 to 9.00", "8.00 to 9.00", "8.00 to 9.00", "8.00 to 9.00"]
